Cited source for all entries: the supplement of paper PMC9170038

apparent KD of MS2 coat protein values for the sequences below.
Tested on: MS2 coat protein
ASSAY PROTOCOL: apparent KD of MS2 coat protein; designed switch direction (-1 OFF switch, 1 ON switch): -1; higher = weaker reporter binding
REPORTED CONDITIONS: Eterna round: R95; input ligand: microRNA oligo, concentration not stated
MEASURED METRIC: apparent KD of MS2 coat protein (µM)

1) AAGUAUAGAGGAUAUAGUAGGUACUACAUGAGGAUCACCCAUGUUCUUCAUUACGUAUUUCUAGAAGGCUGAUAAA [EX-5 Malc#26] (puzzle: Exclusion 5): 0.174
2) AUACAACAUGAGGAUCACCCAUGUGAGGAUAUGCGAUAUAUCAUCAUCAUAAUCAUAAGCAGAAGGCACAACAU [Another One] (puzzle: Exclusion 1): 0.0356
3) AUAUAACAUGAGGAUCACCCAUGUCAGGAUAUGCAGAACAAGAACAAGACAAGACAGAGCAGAAGGGACAAUAU [Ex 1 M4] (puzzle: Exclusion 1): 0.0349
4) AGUACUAUGCGAGCUGACUUGCGUAGUGCAGCAGGUGUUACAUGAGGAUCACCCAUGUCCUCAUUUGCUCGUCUUAU [Mat - Sensor v3 - Turn-off var 2 - D6] (puzzle: Sensor v3, turn-off variant 2): 0.193
5) GGUCAAGAGCAGAUCCGCGCUGCCAUUGACCGCUCAUUUACAUGAGGAUCACCCAUGUUUUUUGCUCGUCUUACUAC [Inedsoinin] (puzzle: Sensor v3, turn-off variant 2): 0.0579
6) GAGAAAUUAUAGGAUAUCGAAAGGAUAAUUUAACGAGAAGGAUGAACAUGAGGAUCACCCAUGUGGUAUCAUGG [JL-ex6-3.11] (puzzle: Exclusion 6): 0.302
7) AAUAACAGAGGAUAUACUAUUUUAUGUAUUUAUUAUUUUGAACAUGAGGAUCACCCAUGUAGAAGGCUGAGUAA [JMF 35] (puzzle: Exclusion 2): 0.0253
8) GGUGCUGGCGCGUCGGUGUUGGUGCAAUAAGCUUGUGAAACAUGAGGAUCACCCAUGUCCUCAUAAGCUCGUCUUGU [salish99_TOv2_r2_087] (puzzle: Sensor v3, turn-off variant 2): 0.283
9) AGAUGUAGAUACCGAUCCUACAUGAGGAUCACCCAUGUAGCUAGACGUGCUCGCGUUGCUCGUCAGACUACCAGUAG [salish99_TOv1_r3_088] (puzzle: Sensor v3, turn-off variant 1): 0.286
10) GGUUGACAUGAGGAUCACCCAUGUGAGGAUAUGCGAGAGAAAAAAGUGAGGAAGGAAUGCAGAAGGCGCUGUCG [salish99-ex1_r3_018] (puzzle: Exclusion 1): 0.0543
11) GAGAAGGUAGGAUAUACGAAUAAAAAGGGUAGAAGAAGAACACAUGAGGAUCACCCAUGUAGAAGGACCAAGAG [Mat - Exclusion 2 - Mod of my Tesla design - D22] (puzzle: Exclusion 2): 0.0172
12) ACGUGAUAUCUGUCGGUGGACAUGAGGAUCACCCAUGUAAGCUUUUUGCUUGUCUUAUAACCCGGUGACAGACCUUC [Inxeer] (puzzle: Sensor v3, turn-off variant 1): 0.54
13) GGAUCAUGAGGAUAUCGAGGUUAGUACAUGAGGAUCACCCAUGUUAUCCAGGUCUCGUUUCGAGAAGGCAUGAUCC [LRO-Ex5-10] (puzzle: Exclusion 5): 0.0212
14) CUUCGUAUAGAGGAUAUAGGUUACUGCGGUAUCCUAGAAGGCUGUACAUGAGGAUCACCCAUGUACUUCAGAUC [Exclusion 6 - B - 13:c] (puzzle: Exclusion 6): 0.0126
15) GAAAAGGGAGGAUAUACAAGAAGAAAAGAAAAGAAAAGAAAACAUGAGGAUCACCCAUGUAGAAGGCCCAAAAG [Default title] (puzzle: Exclusion 2): 0.0187
16) CAGUACUGAGGAUAUACAUGAGGAUCACCCAUGUGUCUAAGGUAGGAUACUACCAUUAGUAGAAGGCAGUACUG [Fiskers Ex 3 828 mod 19] (puzzle: Exclusion 3): 0.0132
17) UUCUUGCAAGGAUAUGAUUUAAGUAACAUGAGGAUCACCCAUGUUUUUCCGUUGUUAUGUUCAGAAGGUGCGUGAU [JR_E5_Sub021] (puzzle: Exclusion 5): 0.0542
18) UUAUAUAGUGUGAGGAUAUGCUGGUCCUUGGAUCAGCAGAAGGCACAUGAGGAUCACCCAUGUAGUUUAUUAUU [Mat - Exclusion 4 - JL Mod - D10] (puzzle: Brourd's mod of Exclusion 4): 0.0248
19) UUUUUACAUGAGGAUCACCCAUGUCAGGAUAUCAUUAUAUUUUAUUAUUUUAUUUAUAUGAGAAGGGACUAUUA [My solution] (puzzle: Exclusion 1): 0.0939
20) CAUACUGAAGUUAGGAUAUUCGAACGUAUACGGAUGGAGAAGGGACAUGAGGAUCACCCAUGUAGAUAGUAAAG [EX-4 Malc #11] (puzzle: Brourd's mod of Exclusion 4): 0.0215
21) UCGCUGCGAGGAUAUACGUUUGCGCGUUUUCGUUUGCGCGUACAUGAGGAUCACCCAUGUAGAAGGCGCGCUGC [Apr-15 SS2-10] (puzzle: Exclusion 2): 0.0133
